Assay: Solubility test of sulfate (Crystalline form III) in various solvents
Format: physicochemical
Details: organic solvent or mixture, thermodynamic from solid; in DMF, NMP, DMSO and acetic acid/water (1:1 (v:v)); read-out: Solubility (excellent)
value-type: solubility

| compound | val |
| --- | --- |
| O=S1(=O)CCN(Cc2cc(NC3CCOCC3)c3[nH]c(-c4ccccc4)cc3c2)CC1 [Sulfate] | ≥ 150 mg/mL |

* * *

Assay: Solubility test of sulfate (Crystalline form III) in various solvents
Type: physicochemical
Conditions: organic solvent or mixture, thermodynamic from solid; 1-Butanol, 25° C.; read-out: Solubility
value-type: solubility

| compound | val |
| --- | --- |
| O=S1(=O)CCN(Cc2cc(NC3CCOCC3)c3[nH]c(-c4ccccc4)cc3c2)CC1 [Sulfate] | < 2000 µg/mL |
